This listing pairs compounds with measured melting point.

[
  {
    "compound": "BrCCCCCCOc1ccc(OCc2ccccc2)cc1",
    "melting point": "72 to 73 °C"
  },
  {
    "compound": "CCC(CC)N(O)C(=O)Nc1ccc(C)c(NC(=O)N(O)C(CC)CC)c1",
    "melting point": "175 to 177 °C"
  },
  {
    "compound": "COc1ccc(-c2[nH]nc3c2C(=O)c2c(NC(=O)CN4CCC(CN)CC4)cccc2-3)cc1",
    "melting point": "> 300 °C"
  },
  {
    "compound": "Cc1c(OCc2ccccc2)c(=O)ccn1CCOC(=O)C(C)(C)C",
    "melting point": "103 to 106 °C"
  },
  {
    "compound": "CCOc1ccc2c(c1)C(=O)Cc1c(Cl)cccc1S2",
    "melting point": "121 to 123 °C"
  },
  {
    "compound": "COc1cc2c(cc1OCc1ccccc1)CCCC(C(=O)N1CCN(C(=O)c3cc(OC)c(OC)c(OC)c3)CC1)=C2",
    "melting point": "140 to 142 °C"
  },
  {
    "compound": "Cn1c(Nc2cccc(C(F)(F)F)c2)nc2c(-c3cccc(C(=O)NCCO)c3)cccc21",
    "melting point": "235 to 236 °C"
  },
  {
    "compound": "COCCNC(=O)c1cccc(-c2cccc3cc(Cc4cc(F)cc(Cl)c4)sc23)c1F",
    "melting point": "124 to 125 °C"
  },
  {
    "compound": "C=C(CC(Cl)(Cl)Cl)c1nc(Cl)ccc1Cl",
    "melting point": "71 to 74 °C"
  },
  {
    "compound": "CN1C(=O)C2C3CCC(C3)C2(c2ccc3c(c2)CCCC3)C1=O (configuration not stated)",
    "melting point": "108 to 114 °C"
  },
  {
    "compound": "CCN(CC)CCNS(=O)(=O)c1ccc(Nc2cnnc3cc(Cl)ccc23)cc1",
    "melting point": "175 to 176 °C"
  },
  {
    "compound": "CC(C)c1cccc(C(C)C)c1NC(=O)NC1CCCCC1c1ccccc1 (configuration not stated)",
    "melting point": "225 to 226 °C"
  },
  {
    "compound": "COc1ncnc(OC)c1NC(N)=S",
    "melting point": "210 °C"
  },
  {
    "compound": "CSCCCn1nc(-c2cccc(C(F)(F)F)c2F)c(=O)c2ccccc21",
    "melting point": "80 to 83 °C"
  },
  {
    "compound": "CCc1nc2c(o1)C(=O)C(Cl)=C(Nc1ccccc1)C2=O",
    "melting point": "159 °C"
  },
  {
    "compound": "COC(=O)Cn1c(C(=O)OCc2ccccc2)cc2ccccc21",
    "melting point": "94 °C"
  },
  {
    "compound": "Cc1c(Br)c(=O)n(C2CCCC2)c2nc(Nc3ccc(N4CCOCC4)nc3)ncc12",
    "melting point": "254 to 256 °C"
  },
  {
    "compound": "CC(C)NC(=O)C1c2cc(NC(=O)c3cc(C(F)(F)F)nn3-c3ncccc3Cl)c(Cl)cc2CC1O (configuration not stated)",
    "melting point": "204 to 205 °C"
  },
  {
    "compound": "CN(C[C@H](O)c1cccc(OCC(=O)O)c1)c1cnc(-c2ccccc2)c(-c2ccccc2)n1",
    "melting point": "158 to 159 °C"
  },
  {
    "compound": "CCOC(=O)COc1cc(C2C(C(=O)OC)=C(C)NC(C)=C2C(=O)OC)ccc1OC",
    "melting point": "170 °C"
  },
  {
    "compound": "CCOC(=O)NC(=S)Nc1cc(NC(=O)OC)ccc1NC(=O)CN(C)C",
    "melting point": "171 to 172 °C"
  },
  {
    "compound": "CCCCCCCC(=O)N(C)Cc1cccc(-c2ccc(CCC(=O)O)s2)c1",
    "melting point": "67 to 68 °C"
  },
  {
    "compound": "COC(=O)c1[nH]c(C)c(C)c1OCCCCl",
    "melting point": "117 to 120 °C"
  },
  {
    "compound": "CN(Cc1nnc2n1-c1ccc(Cl)cc1C(c1ccccc1)=NC2)CC1CC1",
    "melting point": "171 to 176 °C"
  },
  {
    "compound": "CCC1CC2=C(CO1)C(=O)c1ccccc1C2=O (configuration not stated)",
    "melting point": "98 to 101 °C"
  },
  {
    "compound": "Clc1ccccc1C(c1ccc(-c2ccccc2)cc1)n1ccnc1 (configuration not stated)",
    "melting point": "90 °C"
  },
  {
    "compound": "Cc1cc(C)c(NCCC(N)=S)cc1C",
    "melting point": "110 to 111 °C"
  },
  {
    "compound": "CC1CC(C)(C)C(=O)C=C1Cc1ccc(Cl)cc1 (configuration not stated)",
    "melting point": "76 to 77 °C"
  },
  {
    "compound": "CC(=O)c1cnc([N+](=O)[O-])n1C",
    "melting point": "81 to 83 °C"
  },
  {
    "compound": "C=Cc1ccc2nnn(OS(=O)(=O)c3ccc(Cl)cc3)c2c1",
    "melting point": "125 °C"
  },
  {
    "compound": "COC(=O)c1ccc(C(C(N)=O)C(C)c2cc(Cl)ccc2N2CCCC(C)C2)cc1 (configuration not stated)",
    "melting point": "160 to 162 °C"
  },
  {
    "compound": "CCCc1nc(OC)c(NC(=O)N2CCN(c3cccc(O)c3)CC2)cc1C",
    "melting point": "153 to 155 °C"
  },
  {
    "compound": "CCNC(=O)/C=C/c1cnoc1-c1ccccc1",
    "melting point": "156 to 157 °C"
  },
  {
    "compound": "N#CNC(=S)Nc1ccc(C#N)cc1",
    "melting point": "> 250 °C"
  },
  {
    "compound": "CC1Sc2c(C(=O)O)c(=O)c3cc(F)c(N4CCNC(=O)C4)cc3n21 (configuration not stated)",
    "melting point": "198 to 200 °C"
  },
  {
    "compound": "CC(=O)C=Cc1ccc(Br)cc1",
    "melting point": "82 to 84 °C"
  },
  {
    "compound": "O=c1nc(-c2ccc(-c3ccccc3)cc2)sc2ccccc12",
    "melting point": "170 to 171 °C"
  },
  {
    "compound": "O=[N+]([O-])O[C@H]1COc2c(O)cccc2C1",
    "melting point": "129 to 130 °C"
  },
  {
    "compound": "O=C(O)c1cn(C2CC2F)c2c(F)c(F)c(F)cc2c1=O (configuration not stated)",
    "melting point": "232 to 235 °C"
  },
  {
    "compound": "Nc1cnc2c(c1)CCCC2",
    "melting point": "97 to 98 °C"
  },
  {
    "compound": "NCCNC(=O)c1nc(Cl)c(N)nc1N",
    "melting point": "173 to 174 °C"
  },
  {
    "compound": "CCc1nc2c(C)c(NS(C)(=O)=O)cnc2n1-c1ccc(CCNC(=O)NS(=O)(=O)c2ccc(C)cc2)cc1",
    "melting point": "166 °C"
  }
]

====

experimental-endpoint: melting point

[
  {
    "molecule": "CCc1cc(/C=C/C(N)=O)ccc1Cl",
    "experimental-endpoint": "melting point",
    "measurement": "152 to 153 °C"
  },
  {
    "molecule": "COC(=O)c1ccc(CN2CCN(C(=O)c3cc(C(F)(F)F)cc(C(F)(F)F)c3)[C@H](Cc3c[nH]c4ccccc34)C2)cc1",
    "experimental-endpoint": "melting point",
    "measurement": "75 to 78 °C"
  },
  {
    "molecule": "CC1(C)[C@H](/C=C/Cl)[C@@H]1C(=O)O (relative stereo)",
    "experimental-endpoint": "melting point",
    "measurement": "103 to 105 °C"
  },
  {
    "molecule": "COc1ccc2c(c1)c(CC(=O)O)c(C)n2C(=O)c1ccc(F)c(F)c1",
    "experimental-endpoint": "melting point",
    "measurement": "113 to 115 °C"
  },
  {
    "molecule": "O=CCCCCC(c1cc(F)ccc1F)S(=O)(=O)c1ccc(Cl)cc1 (stereo not given)",
    "experimental-endpoint": "melting point",
    "measurement": "135 to 136 °C"
  }
]

====

Reported melting point values follow for various compounds

[
  {
    "compound": "COc1c(Cl)ccc(C(=O)O)c1SC",
    "melting point": "98 to 99 °C"
  },
  {
    "compound": "CCOC(=O)c1cn(-c2cc(N(C)C)c(F)cc2F)c2nc(Cl)c(F)cc2c1=O",
    "melting point": "158 to 163 °C"
  },
  {
    "compound": "COC(=O)NNC(=S)Cc1ccccc1",
    "melting point": "93.5 to 94 °C"
  },
  {
    "compound": "Nc1ccccc1NC(=O)c1ccc(COC(=O)NCc2cccnc2)cc1",
    "melting point": "139 to 141 °C"
  },
  {
    "compound": "CC(C)(C)NS(=O)(=O)c1ccccc1CCO",
    "melting point": "43 to 45 °C"
  },
  {
    "compound": "O=C1c2ccccc2Cc2c1ccc(Cl)c2O",
    "melting point": "186 to 188 °C"
  },
  {
    "compound": "CCc1cc2ccccn2c1C(=O)c1ccc(OS(=O)(=O)c2ccc(C)cc2)cc1",
    "melting point": "165 °C"
  },
  {
    "compound": "O=C(O)c1cccc(-c2ccc3c(c2)N(c2ccc(Cl)c(Cl)c2)CC3)c1",
    "melting point": "205 to 206 °C"
  },
  {
    "compound": "COc1cc(CCNC(=O)C(F)(F)F)ccc1[N+](=O)[O-]",
    "melting point": "104 °C"
  },
  {
    "compound": "O=C(Nc1ccc(C(F)(F)F)cc1)OCC1(COC(=O)Nc2ccc(C(F)(F)F)cc2)CSc2ccccc2C1=O",
    "melting point": "76 to 82 °C"
  },
  {
    "compound": "CN1CCCCC1CCc1ccccc1NC(=O)c1ccoc1 (configuration not stated)",
    "melting point": "114 to 116 °C"
  },
  {
    "compound": "CCCCOC(=O)C(C#N)=C1Nc2ccccc2O1",
    "melting point": "116 to 119 °C"
  },
  {
    "compound": "CCC(C)C(C(=O)O)N1C(=O)C2C3C=CC(C3)C2C1=O (configuration not stated)",
    "melting point": "109 °C"
  },
  {
    "compound": "CCCCCC/C=C(\\C(=O)Nc1ccc(C(=O)O)cc1)c1ccc2c(c1)C(C)(C)CCC2(C)C",
    "melting point": "183 to 184 °C"
  },
  {
    "compound": "CS(=O)(=O)c1ccc(-c2c(-c3ccc(O)cc3)[nH]c3ccc(Cl)cc23)cc1",
    "melting point": "271 to 273 °C"
  },
  {
    "compound": "COc1ccc(CNc2nc(NCCCc3ccc(C(C)=O)cc3)nc3ncccc23)cc1OC",
    "melting point": "184 to 185 °C"
  },
  {
    "compound": "N#Cc1ccc(NC(=O)OCc2cccnc2)cc1",
    "melting point": "205 to 207 °C"
  },
  {
    "compound": "CCCc1nc2c(N)nc3cc(OCCn4cccc4)ccc3c2s1",
    "melting point": "158 to 160 °C"
  },
  {
    "compound": "O=[N+]([O-])c1ccc(I)c(C(F)(F)F)c1",
    "melting point": "81 to 82 °C"
  },
  {
    "compound": "Cc1c(CO)c(CO)c2n1-c1ccccc1C2",
    "melting point": "123 to 125 °C"
  },
  {
    "compound": "COc1ccc2c(c1)c1c(n2CCC(=O)NN)CCN(C)C1",
    "melting point": "126 to 128 °C"
  },
  {
    "compound": "O=C1OC(CO)CN1c1ccc(O)cc1 (configuration not stated)",
    "melting point": "189 °C"
  }
]
